measured.on: Cyclin-dependent kinase 5/CDK5 activator 1 (Homo sapiens, UniProt Q00535)
Sequence (Q00535 whole entry): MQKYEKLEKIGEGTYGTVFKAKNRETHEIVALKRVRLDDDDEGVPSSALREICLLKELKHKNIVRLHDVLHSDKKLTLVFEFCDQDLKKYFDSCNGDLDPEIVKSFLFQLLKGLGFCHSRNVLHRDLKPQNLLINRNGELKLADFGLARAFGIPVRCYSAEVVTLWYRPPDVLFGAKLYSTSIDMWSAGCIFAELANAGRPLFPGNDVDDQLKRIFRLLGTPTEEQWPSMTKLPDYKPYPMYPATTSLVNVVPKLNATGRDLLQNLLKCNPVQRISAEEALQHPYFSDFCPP
Sequence (Q15078 whole entry, further chain): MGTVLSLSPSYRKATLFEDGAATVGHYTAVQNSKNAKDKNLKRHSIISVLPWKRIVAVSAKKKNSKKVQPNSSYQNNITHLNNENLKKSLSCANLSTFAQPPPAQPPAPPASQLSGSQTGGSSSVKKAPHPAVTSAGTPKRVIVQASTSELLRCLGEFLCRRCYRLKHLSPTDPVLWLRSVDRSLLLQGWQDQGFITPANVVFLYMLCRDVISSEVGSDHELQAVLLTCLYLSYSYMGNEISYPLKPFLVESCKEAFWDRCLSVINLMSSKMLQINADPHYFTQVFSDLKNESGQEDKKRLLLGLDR
measurement.protocol: Inhibitory activity against recombinant mammalian cyclin-dependent kinase 5 (p35 NCK5a) expressed in Escherichia coli
Field: label. Allowed values: Y (IC50 < 10 µM) or N (IC50 >= 10 µM).

Here are 10 molecules together with their reported answers.
COc1cc(OC)cc(-c2cc3[nH]ccnc-3n2)c1	N
Cc1c(C2(c3ccc(Cl)cc3)CC2)[nH]c2nccnc12	N
COc1ccc(-c2[nH]c3nccnc3c2CC2CCCCC2)cc1	N
Clc1ccc(-c2[nH]c3nccnc3c2CC2CCCCC2)cc1	N
Clc1ccc(-c2[nH]c3nccnc3c2Cc2ccccc2)cc1	N
COc1ccc(-c2[nH]c3nccnc3c2CCCCl)cc1	Y
Oc1ccccc1-c1cc2[nH]ccnc-2n1	Y
Fc1ccc(-c2cc3[nH]ccnc-3n2)cc1	Y
Clc1cc(Cl)cc(-c2cc3[nH]ccnc-3n2)c1	N
Clc1ccc(C2(c3cc4[nH]ccnc-4n3)CC2)cc1	N

Moving on to the next molecule.
Data request: Answer whether the molecule c1ccc(-c2cc3[nH]ccnc-3n2)cc1 has IC50 strictly less than 10 µM
Data returned: Y

###

So I've got pIC50 readings for CDK1/cyclin B (Marthasterias glacialis), take a look.
Please treat pIC50 as minus the base-10 logarithm of the molar concentration.

The following molecules have reported results that may help.
c1ccc(Cc2c(-c3ccccc3)[nH]c3nccnc23)cc1	5.70
Clc1ccc(-c2[nH]c3nccnc3c2CC2CCCCC2)cc1	5.00

Query molecule follows.
Data request: Notebook: pull reported pIC50 for CDK1/cyclin B (Marthasterias glacialis), entry COc1ccc(-c2cc3[nH]ccnc-3n2)cc1
Data returned: 5.70

###

measured.on: Glycogen synthase kinase-3 beta (Homo sapiens, UniProt P49841)
Sequence (P49841 whole entry): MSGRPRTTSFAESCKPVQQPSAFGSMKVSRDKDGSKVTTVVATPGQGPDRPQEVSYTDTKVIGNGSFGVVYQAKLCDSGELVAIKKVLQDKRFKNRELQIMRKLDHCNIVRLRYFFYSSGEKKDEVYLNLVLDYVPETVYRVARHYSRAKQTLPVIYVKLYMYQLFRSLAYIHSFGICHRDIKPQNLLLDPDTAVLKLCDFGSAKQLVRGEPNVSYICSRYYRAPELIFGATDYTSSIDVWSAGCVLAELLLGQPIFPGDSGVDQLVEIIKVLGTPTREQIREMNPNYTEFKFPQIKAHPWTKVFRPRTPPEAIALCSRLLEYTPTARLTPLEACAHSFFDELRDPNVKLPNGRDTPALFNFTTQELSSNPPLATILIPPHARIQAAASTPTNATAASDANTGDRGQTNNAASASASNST
measurement.protocol: Inhibition of glycogen synthase kinase-3 beta, purified from porcine brain or expressed in and purified from insect Sf9 cells
result.type: IC50

Here is how some compounds turned out for IC50.
Cn1c(-c2ccccc2)cc2nccnc21	> 100 µM
CCCCCCCc1c(-c2ccc(OC)cc2)[nH]c2nccnc12	> 10 µM
Clc1cc(Cl)cc(-c2cc3[nH]ccnc-3n2)c1	> 100 µM
c1ccc(-c2cc3[nH]c4ccccc4nc-3n2)cc1	> 100 µM

Data request: Which IC50 is listed for Cc1c[nH]c2cc(-c3ccccc3)nc-2n1 ?
Data returned: > 100 µM

###

Documented pIC50 across a set of compounds
measured.on: Cyclin-dependent kinase 5/CDK5 activator 1 (Homo sapiens, UniProt Q00535)
measurement.protocol: Inhibitory activity against recombinant mammalian cyclin-dependent kinase 5 (p35 NCK5a) expressed in Escherichia coli
Quick note: pIC50 values are minus log10 of concentrations in mol/L.

Answered cases to consult:
Cc1c(-c2ccc(OS(=O)(=O)N(C)C)cc2)[nH]c2nccnc12	6.05
CCCc1c(-c2ccc(OC)cc2)[nH]c2nccnc12	6.30
Cc1c[nH]c2cc(-c3ccccc3)nc-2n1	4.00

Data request: Look at this compound and give its reported pIC50. COc1ccc(-c2[nH]c3nccnc3c2C)cc1OC
Data returned: 6.00

Data request: Returns the measured pIC50 for the input compound. Input: c1csc(-c2cc3[nH]ccnc-3n2)c1
Data returned: 5.70

Data request: Consider the compound N#Cc1ccc(-c2cc3[nH]ccnc-3n2)cc1 and give its measured pIC50.
Data returned: 4.89

###

measured.on: Cyclin-dependent kinase 5/CDK5 activator 1 (Homo sapiens)
measurement.protocol: Inhibitory activity against recombinant mammalian cyclin-dependent kinase 5 (p35 NCK5a) expressed in Escherichia coli
result.type: IC50

Consider the worked cases shown below.
CN(C)c1ccc(-c2cc3[nH]ccnc-3n2)cc1	> 100 µM
COc1cc(-c2cc3[nH]ccnc-3n2)cc(OC)c1OC	> 100 µM
CCCCCCCc1c(-c2ccc(OC)cc2)[nH]c2nccnc12	> 100 µM
COc1ccc(-c2[nH]c3nccnc3c2C(C)C)cc1	2 µM
COc1ccc(-c2[nH]c3nccnc3c2CC2CC2)cc1	> 100 µM

Data request: Would you mind telling me what IC50 value was observed for c1ccc(-c2cc3[nH]c4ccccc4nc-3n2)cc1 ?
Data returned: > 100 µM

Data request: Query: IC50; subject: c1ccc(Cc2c(-c3ccccc3)[nH]c3nccnc23)cc1
Data returned: > 100 µM

Data request: Return reported IC50; argument: C=CCc1c(-c2ccc(OC)cc2)[nH]c2nccnc12
Data returned: 2 µM
